- target_or_system: Torsin-1A-interacting protein 1 (Homo sapiens) (UniProt Q5JTV8)
- Sequence (Q5JTV8 whole entry, looked up): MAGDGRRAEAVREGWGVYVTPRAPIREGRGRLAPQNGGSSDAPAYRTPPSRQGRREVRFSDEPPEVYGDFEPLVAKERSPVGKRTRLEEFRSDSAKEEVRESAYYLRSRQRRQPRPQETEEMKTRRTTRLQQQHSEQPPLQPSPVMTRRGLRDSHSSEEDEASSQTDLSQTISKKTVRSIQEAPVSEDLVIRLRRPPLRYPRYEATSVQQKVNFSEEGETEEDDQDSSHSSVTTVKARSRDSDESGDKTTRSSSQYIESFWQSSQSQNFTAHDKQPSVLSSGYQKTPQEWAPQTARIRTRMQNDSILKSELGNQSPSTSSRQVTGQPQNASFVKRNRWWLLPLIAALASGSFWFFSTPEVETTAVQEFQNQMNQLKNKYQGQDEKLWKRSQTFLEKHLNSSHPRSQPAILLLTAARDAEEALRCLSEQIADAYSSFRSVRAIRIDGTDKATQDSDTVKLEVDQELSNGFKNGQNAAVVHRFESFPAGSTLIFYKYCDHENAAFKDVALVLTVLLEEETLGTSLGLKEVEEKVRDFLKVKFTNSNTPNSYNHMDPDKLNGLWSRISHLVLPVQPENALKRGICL
- method_notes: LAP1 binders from COS7 cell lysate, primary screen, small-molecule microarray, 635/667 nm fluorescence (AID 1116)
- assay_conditions: COS7-hLAP1 lysate binding, 635 nm fluorescence, higher = more signal
Quick rule for you: composite z-score at 0.9 or higher means Met, lower means Not met.

Answered examples (10):
[
  {
    "compound": "CN1C(=O)C2C=CC(C(O)C3=C[C@H]4C[C@@H](C3)C4(C)C)N(Nc3ccccc3)C2C1=O (stereo partly specified)",
    "assigned_category": "Not met"
  },
  {
    "compound": "CC1CC/C=C\\[C@H]2OC34C=CCN(Cn5nnc6ccccc65)C(=O)[C@H]3N(C(CO)C(C)C)C(=O)[C@@H]4C2C(=O)O1 (stereo partly specified)",
    "assigned_category": "Not met"
  },
  {
    "compound": "Cc1ccc(C(C)CC(O)C2C=CC3C(=O)N(c4ccccc4)C(=O)C3N2Nc2ccc([N+](=O)[O-])cc2)o1 (stereo unspecified)",
    "assigned_category": "Not met"
  },
  {
    "compound": "COc1cc(OC)c(C(O)C2C=CC3C(=O)NC(=O)C3N2Nc2ccc(Cl)cc2Cl)cc1Br (stereo unspecified)",
    "assigned_category": "Met"
  },
  {
    "compound": "C=CC[C@@]1(C(=O)NCc2ccccc2)N=C(c2ccc(OCCCO)cc2)O[C@@H]1c1ccccc1N=[N+]=[N-]",
    "assigned_category": "Met"
  },
  {
    "compound": "O=C1OCCC=C[C@H]2OC34C=CCN(CCN5CCOCC5)C(=O)[C@H]3N(CCCCCCO)C(=O)[C@@H]4C12 (stereo partly specified)",
    "assigned_category": "Not met"
  },
  {
    "compound": "COCCOC(=O)N1C(=O)[C@@]2(c3cc(C#CC4(O)CCCCCC4)ccc31)[C@H](c1ccc(O)cc1)N1[C@H](c3ccccc3)[C@H](c3ccccc3)OC(=O)[C@H]1[C@@H]2C(=O)Nc1nc2ccccc2s1",
    "assigned_category": "Met"
  },
  {
    "compound": "CCOC(=O)C[C@H]1[C@H](OC(=O)Cc2ccc3c(c2)OCO3)[C@@H](NC(=O)c2ccc(-c3ccccc3)cc2)c2cc(OCCCO)ccc2N1C(=O)Cc1ccc(OC)cc1",
    "assigned_category": "Not met"
  },
  {
    "compound": "O=C1c2ccccc2[C@@]2(Cc3ccccc3N(CC(F)(F)F)C2=O)[C@H](c2ccc(CO)cc2)N1Cc1ccccc1Cl",
    "assigned_category": "Not met"
  },
  {
    "compound": "O=C1OCCC/C=C\\[C@H]2OC34C=CCN(CCN5CCOCC5)C(=O)[C@H]3N(CCCO)C(=O)[C@@H]4C12 (stereo partly specified)",
    "assigned_category": "Met"
  }
]

With those in mind, consider the next compound.
Prompt: Record `C#CCNC(=O)[C@H](Cc1ccccc1)NC(=O)CCC(=O)O` ; criterion: composite z-score no lower than 0.9. Met?
Completion: Not met

====

- method_notes: basal RPMI8226 viability, no added stimulus, profiling panel, cell-based, calcein-AM fluorescence, 48 h, PK04 Diversity Set (AID 1166);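 also: cells grown under basal conditions without added stimulus; test concentration not given here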
- assay_conditions: RPMI8226 myeloma viability, higher = more signal
# binning rule on z-score: bottom end = under -0.8, midrange = from -0.8 up to 0.06, top end = 0.06 and over

[
  {
    "compound": "CCCC=C(CCC)[C@@H](NS(=O)(=O)c1cccs1)c1ccc(C(=O)OC)cc1",
    "assigned_category": "bottom end"
  },
  {
    "compound": "[N-]=[N+]=NCc1ccccc1[C@@H]1OC(c2ccc(OCCCO)cc2)=N[C@]1(CCS(=O)(=O)c1ccccc1)C(=O)NCCN1CCOCC1",
    "assigned_category": "top end"
  },
  {
    "compound": "C=CCNC(=O)[C@H]1[C@@H]2C(=O)O[C@@H](c3ccccc3)[C@@H](c3ccccc3)N2[C@@H](c2ccc(O)cc2)[C@]12C(=O)N(C(=O)OCCOC)c1ccc(C#CCNC(N)=O)cc12",
    "assigned_category": "midrange"
  },
  {
    "compound": "CN(C)CCCNC(=O)[C@@]1(C)c2ccccc2C(=O)N(Cc2cc(F)cc(C(F)(F)F)c2)[C@H]1c1ccc(CO)cc1",
    "assigned_category": "midrange"
  },
  {
    "compound": "C=CCC(OC(C)=O)[C@@H]1[C@@H](N(Cc2ccc(-c3cccc(C(F)(F)F)c3)o2)C(=O)c2ccc(-c3ccccc3)cc2)c2cc(OCCCO)ccc2N1C(=O)c1ccc(-c2ccccc2)cc1 (stereo partly specified)",
    "assigned_category": "midrange"
  }
]

Prompt: Bin? `O=C1O[C@H](c2ccccc2)[C@H](c2ccccc2)N2[C@H]1[C@@H](C(=O)NC[C@H](O)c1ccccc1)[C@]1(C(=O)Nc3ccccc31)[C@H]2c1ccc(OCCO)cc1`
Completion: bottom end

Prompt: Note: place this compound into its band. Item: `C=C(COC)/C(=C/C[C@H](OC(=O)c1ccncc1)c1ccc(OCCO)cc1)c1cnc2ccccc2c1`
Completion: top end

Prompt: Exercise: read the entry `COc1ccc([Si](C)(C)[C@H]2[C@H](CCO)O[C@@]3(C(=O)N(C)c4c(Br)cc(C)cc43)[C@@H]2C)cc1` and state which class it falls under.
Completion: bottom end

Prompt: Please classify: C=CCC(OC(C)=O)[C@@H]1[C@@H](N(Cc2ccc(-c3ccccc3)cc2)C(=O)Cc2ccc(F)cc2)c2cc(OCCCO)ccc2N1C(=O)c1ccc(-c2ccccc2)cc1 (stereo partly specified)
Completion: top end

Prompt: Band for O=C1OCCC/C=C\[C@H]2OC34C=CCN(Cc5ccccc5)C(=O)[C@H]3N(CCCCCCO)C(=O)[C@@H]4C12 (stereo partly specified) ?
Completion: top end

====

Listed compounds paired with reported composite z-score
- method_notes: COS7 lysate on small-molecule microarray, probe aHis, 635 nm (AID 1123);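 also: z-score combines 667nm fluorescence intensity with signal-to-noise per printed compound spot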
- assay_conditions: COS7 cell lysate, fluorescence, higher = more signal
Please respond with just the number, no unit label.

Solved cases below.
[
  {
    "compound": "CCOC(=O)C1=CCC(c2ccc(C)cc2)N(S(=O)(=O)c2ccc(C)cc2)C1 (configuration not stated)",
    "composite z-score": 1.43
  },
  {
    "compound": "CN1C(=O)C2C=CC(C(O)C3=C[C@H]4C[C@@H](C3)C4(C)C)N(Nc3ccccc3)C2C1=O (some centres not stated)",
    "composite z-score": 1.75
  },
  {
    "compound": "C=C/C=C/[C@H]1C(=C)CN([C@@H](Cc2ccccc2)C(=O)OC)[C@@H]1[C@H](O)Cc1ccccc1",
    "composite z-score": 0.25
  },
  {
    "compound": "COC(=O)C(CC#Cc1ccc2c(c1)[C@]1(C(=O)N2)[C@H](C(=O)O)[C@H]2C(=O)O[C@H](c3ccccc3)[C@H](c3ccccc3)N2[C@@H]1c1ccc(O)cc1)C(=O)OC",
    "composite z-score": 1.07
  },
  {
    "compound": "COc1ccc([Si](C)(C)[C@@H]2[C@@H](CCO)O[C@]3(C(=O)N(Cc4ccc(N5C(=O)COc6ccccc65)cc4)c4ccccc43)[C@H]2C)cc1",
    "composite z-score": 1.55
  },
  {
    "compound": "[N-]=[N+]=NCc1ccccc1[C@@H]1OC(c2ccc(OCCCO)cc2)=N[C@]1(CCS(=O)(=O)c1ccccc1)C(=O)NCCN1CCOCC1",
    "composite z-score": 2.86
  }
]

Prompt: Look up composite z-score for this compound: `C#CCNC(=O)[C@H](Cc1ccccc1)NC(=O)CCC(=O)O`
Completion: -0.301

Prompt: // returns reported composite z-score for input `COCCOC(=O)N1C(=O)[C@@]2(c3cc(C#CCNC(N)=O)ccc31)[C@H](C(=O)NC[C@H](O)c1ccccc1)[C@H]1C(=O)O[C@H](c3ccccc3)[C@H](c3ccccc3)N1[C@@H]2c1ccccc1OCCO`
Completion: 1.28

Prompt: I would be grateful if you could share the reported composite z-score for C=CCN(Cc1ccccc1)C(=O)C(c1cccs1)N(CCOCCO)C(=O)/C=C\C(=O)O (configuration not stated) .
Completion: -0.25

Prompt: // composite z-score lookup, key: O=C1C2C=CC(C(O)C(c3ccccc3)c3ccccc3)N(n3cnnc3)C2C(=O)N1Cc1ccccc1 (configuration not stated)
Completion: 2.61

Prompt: Recorded composite z-score for `COCCCN1C(=O)[C@@]2(c3ccc([N+](=O)[O-])cc3)CC(=O)N(C3CCCCC3)[C@@H]2c2ccc(CO)cc21` , please?
Completion: 0.143

Prompt: Which composite z-score is listed for `CN(C)CCCC[C@@H]1NC(=O)[C@H]2C[C@@H](C(=O)NCCCCCNC(=O)CS)[C@@H](c3cccc(OCCO)c3)N2C1=O` ?
Completion: 1.67

Prompt: Returns the measured composite z-score for the input compound. Input: `CCOC(=O)[C@H]1C/C=C/C[C@H](C(=O)OCC)C(=O)O[C@H]2[C@@H](OC)O[C@H](CO)[C@@H](OC(=O)Nc3cccc(F)c3)[C@@H]2OC1=O`
Completion: 1.86

Prompt: For the compound CC(C)(C)OC(=O)CC[C@@]1(C(=O)NCC(O)CO)N=C(c2ccc(OCCCO)cc2)O[C@@H]1c1ccccc1N=[N+]=[N-] (some centres not stated) , what composite z-score is on record?
Completion: 3.53

Prompt: I have this compound here, `COc1ccc(CCNC(=O)[C@@H]2c3ccccc3C(=O)N(C3Cc4ccccc4C3)[C@H]2c2ccc(CO)cc2)cc1` , and I need its recorded composite z-score.
Completion: 2.21

Prompt: Field request: composite z-score | item: `C=CC[C@]1(C(=O)N2CCCCC2)N=C(c2ccc(OCCCO)cc2)O[C@H]1c1ccccc1`
Completion: 2.04

Prompt: Which value of composite z-score has been reported for CCN(CC)c1ccc(N2CC=CC34O[C@@H]5/C=C\CCC(C)OC(=O)C5[C@H]3C(=O)N(C(CO)C(C)C)[C@@H]4C2=O)cc1 (some centres not stated) in the records?
Completion: 0.595

Prompt: GET /values?readout=composite z-score&item= `C=C(CCCC)C(=O)CC[C@H](OC(=O)c1cccnc1)c1ccccc1OCCO`
Completion: 0.232

Prompt: GET /values?readout=composite z-score&item= `COc1cc2c(cc1O)C=[N+](Cc1cccc(OC(F)(F)F)c1)CC2`
Completion: -0.784

Prompt: Name the reported composite z-score value associated with the compound CCOc1cc(C(O)C2C=CC3C(=O)N(c4ccccc4)C(=O)C3N2Nc2ccccc2)ccc1O (configuration not stated)
Completion: 1.31

Prompt: Dear colleague, I am looking for the recorded composite z-score of the following compound: `O=C1C[C@]2(c3ccc([N+](=O)[O-])cc3)C(=O)N(CCN3CCOCC3)c3cc(CO)ccc3[C@H]2N1C1CCCCC1`
Completion: 0.294

Prompt: Any idea what its composite z-score is? The compound is `COc1ccc([Si](C)(C)[C@H]2[C@H](CCn3cc([C@H](O)c4ccccc4)nn3)O[C@@]3(C(=O)N(Cc4cccc(N5CCOC5=O)c4)c4ccccc43)[C@@H]2C)cc1`
Completion: 0.178
